Overview of recorded activity at 200 µM for various molecules
System: HepG2 cells
Assay: Measurement of gluconeogenesis (14C-lactate)
Format: cell-based
Conditions: Homo sapiens, 200 uM, 24 h treatment, lower is better, read-out: gluconeogenesis (glucose synthesis ability), % control
Express the result in % but write the number alone.

See these solved cases before continuing.
CN(C)c1nc(N)nc(NCc2ccoc2)n1 | 78.6
CN(C)c1nc(N)nc(NCCN2CCCCC2)n1 | 101
CN(C)c1nc(N)nc(N)n1 | 70.4
COc1ccc(CNc2nc(N)nc(N(C)C)n2)cc1O | 94.8
Nc1nc(N)nc(NCCc2ccccc2)n1 | 99.6

Entry `CN(C)c1nc(N)nc(NCCCN2CCCC2=O)n1` — recorded activity at 200 µM = 110

Entry `CN(C)c1nc(N)nc(N(C)C)n1` ; activity at 200 µM = 87.2
